Assay: Antioxidant activity assessed as DPPH radical scavenging activity at 100 uM after 60 mins by spectrophotometry
Assay type: physicochemical
Conditions: 1 h
Endpoint name: inhibition (INH) (%)
Expressed in %, but write only the number.

Example results:
CC(C)=CCOc1ccc(-c2c(C)c3cc(Br)ccc3oc2=O)cc1OCC=C(C)C :: 68
COc1ccc(-c2c(C)c3ccccc3oc2=S)cc1 :: 11
CC(C)=CCOc1ccc(-c2cc3cc(Br)ccc3oc2=O)cc1OCC=C(C)C :: 5

// below: inhibition (INH) requested for another compound
For reference, reported inhibition (INH) for COc1ccc(-c2ccc3oc(=O)c(-c4ccc(OC)c(OC)c4)c(C)c3c2)cc1 stands at 7
